Entry source: patent US12173001B1

# System: HL60 (leukemia)
# protocol summary: In vitro cytotoxic activity (MTT) assay, HL60
# Format: cell-based
# condition description: Homo sapiens, HL-60, cells exposed for 96 hours, read-out: Cytotoxicity activity IC50 (50% inhibition of cell proliferation)
pIC50: −log10 of the molar value.
property: pIC50

O=C(O)c1nnc2c3cnccc3nc(Nc3cccc(Cl)c3)n12; 5.24

----------
# Test system: MDA-MB-231 (breast)
# protocol summary: In vitro cytotoxic activity (MTT) assay, MDA-MB-231
# Format: cell-based
# condition description: Homo sapiens, cells exposed for 96 hours, read-out: Cytotoxicity activity IC50 (50% inhibition of cell proliferation)
property: IC50 (µM)

O=C(O)c1nnc2c3cnccc3nc(Nc3cccc(Cl)c3)n12 [Compound 1]; 4.5
